Species on record: Cavia porcellus
Assay: Intrinsic activity calculated as the ratio of the maximum response to the compound to the maximum response to isoprenaline.
Format: functional
value.type: Intrinsic activity

The cases that follow already have their Intrinsic activity on record.
> print(dat)
                                   compound          value.type  result
1         COc1cc(-c2ccccn2)cc2c(C)cc(O)nc12  Intrinsic activity    0.74
2            COc1cc(-c2cccnc2)cc2ccc(O)nc12  Intrinsic activity    0.57
3             Oc1ccc2cc(-c3ccccn3)cc(O)c2n1  Intrinsic activity    0.51
4  CC(C)NCC(O)c1ccc(O)c(O)c1 (centres undefined)  Intrinsic activity       1
5           COc1cc(-c2ccncc2)cc2c1NC(=O)CC2  Intrinsic activity    0.68
6            Cn1c(=O)ccc2cc(-c3cccnc3)ccc21  Intrinsic activity    0.33
7                Oc1ccc2cc(-c3ccncc3)ccc2n1  Intrinsic activity    0.45
8                    Nc1cc(Cl)c2nc(O)ccc2c1  Intrinsic activity    0.54

For every listed record, write down its Intrinsic activity.
1. Oc1ccc2cc(-c3ccccn3)cc(Cl)c2n1
2. Oc1ccc2ccc(-c3cccnc3)cc2n1
3. O=C1CCc2cc(-c3cccnc3)ccc2N1
4. O=C1CCc2cc(-c3ccccn3)ccc2N1
5. COc1cc(-c2cccnc2)cc2c(C)cc(O)nc12
6. Oc1ccc2cc(-c3ccncc3)cc(Cl)c2n1
7. COc1cc(-c2ccncc2)cc2ccc(O)nc12
8. Cc1cc(C)c(-c2ccc3nc(O)ccc3c2)c(C)n1

Given back:
1. 0.75
2. 0.67
3. 0.67
4. 0.29
5. 0.81
6. 0.78
7. 0.88
8. 0.38

Below are 4 compounds. Give each one its Intrinsic activity.
1. COc1cc(-c2ccccn2)cc2ccc(O)nc12
2. Oc1ccc2cc(-c3cccnc3)cc(Cl)c2n1
3. COc1cc(-c2cccnc2)cc2c1NC(=O)CC2
4. Oc1ccc2cc(-c3ccccn3)ccc2n1

Given back:
1. 0.72
2. 0.68
3. 0.68
4. 0.67

Below are some compounds; for each one, tell me its Intrinsic activity.
1. c1cncc(-c2ccc3nc(OCCN4CCOCC4)ccc3c2)c1
2. COc1cc(-c2ccncc2)cc2c(C)cc(O)nc12
3. Oc1ccc2cc(-c3cccnc3)cc(O)c2n1
4. O=c1ccc2cc(-c3cccnc3)ccc2n1CCN1CCOCC1
5. COc1cc(-c2ccccn2)cc2c1NC(=O)CC2
6. O=C1CCc2cc(-c3ccncc3)ccc2N1
7. Cc1[nH]c(=O)c(C#N)cc1-c1ccncc1
8. Oc1ccc2cc(-c3cccnc3)ccc2n1

Given back:
1: 0.23; 2: 0.5; 3: 0.72; 4: 0.58; 5: 0.71; 6: 0.56; 7: 0.67; 8: 0.67

Asked: For the compound Oc1ccc2cccc(-c3cccnc3)c2n1 , report Intrinsic activity.
Given back: 0.41
